Molecular target: enzyme of Corynebacterium striatum Ax 20 (SEQ ID No. 1) (Corynebacterium striatum, UniProt Q8GGD4)
Construct: endogenous in cells
Sequence (Q8GGD4 2-400): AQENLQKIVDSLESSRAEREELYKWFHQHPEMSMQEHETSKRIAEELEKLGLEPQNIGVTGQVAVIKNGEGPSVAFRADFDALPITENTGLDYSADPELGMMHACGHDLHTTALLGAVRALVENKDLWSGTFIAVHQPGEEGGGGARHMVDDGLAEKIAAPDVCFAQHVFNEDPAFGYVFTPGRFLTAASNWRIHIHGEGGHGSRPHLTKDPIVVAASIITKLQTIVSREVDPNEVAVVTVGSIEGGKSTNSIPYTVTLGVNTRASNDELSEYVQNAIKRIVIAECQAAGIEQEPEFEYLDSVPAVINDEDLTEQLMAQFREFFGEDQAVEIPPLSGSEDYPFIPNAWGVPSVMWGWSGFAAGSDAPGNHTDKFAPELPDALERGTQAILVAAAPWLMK
Assay: Enzyme inhibition, cellular extract, Nα-lauroyl-L-glutamine cleavage, fluorescamine readout
Conditions: substrate Nα-lauroyl-L-glutamine 50 μM, 10 min preincubation at 37° C., 15 min incubation, pH 7
measuredQuantity: pIC50
Notebook: values listed as pIC50 are -log10 of the concentration (mol/L).

CCCCCCCCCCP(=O)(O)CC(CCC(N)=O)C(=O)O (stereo not shown) [Compound 5a]	7.52
CC(C)CCCC(C)CCP(=O)(O)CC(CCC(N)=O)C(=O)O (stereo not shown) [Compound 5n]	8.05
CC(CCc1ccccc1)CCP(=O)(O)CC(CCC(N)=O)C(=O)O (stereo not shown) [Compound 5c]	7.94

Can you share its pIC50? I mean this compound: CCCCCCCCP(=O)(O)CC(CCC(N)=O)C(=O)O (stereo not shown) [Compound 5y]
7.75

The measured values listed here are drawn from patent US7402576B2.
